Species: Oryctolagus cuniculus
Assay: Ratio of inhibition of PP1 to that of inhibition of PP2A using phosphorylase-a assay
*1 amine or outer side, *2 acyl side, *3 side chain or, on linkers, in order; H or OH if unused. Where a SMILES comes first, the peptide text is derived from it. Bridges are numbered along the chain shown (N, C = ends). [ ]: non-standard residue; d: D form. Adda = CO[C@@H](Cc1ccccc1)[C@@H](C)/C=C(C)/C=C/[C@H](N[*:1])[C@H](C)C(=O)[*:2]; dAsp(3S-Me) = C[C@H](C(=O)[*:3])[C@@H](N[*:1])C(=O)[*:2]; d(γGlu) = O=C(O)[C@@H](CCC(=O)[*:2])N[*:1]; NMeDha = C=C(NC)C(=O)O
Some molecules, each annotated with its measured Ratio.

| molecule | limit.sign | Ratio |
| --- | --- | --- |
| CO[C@@H](Cc1ccccc1)[C@@H](C)/C=C(C)/C=C/[C@H](NC(C)=O)[C@H](C)C(=O)N1[C@H](C(=O)O)CC[C@H]1C(=O)O | > | 1.3 |
| CO[C@@H](Cc1ccccc1)[C@@H](C)/C=C(C)/C=C/[C@H](NC(C)=O)[C@H](C)C(=O)N[C@@H](C)C(=O)O | = | 1.22 |
| CO[C@@H](Cc1ccccc1)[C@@H](C)/C=C(C)/C=C/[C@H](NC(C)=O)[C@H](C)C(=O)N1C[C@H](O[Si](C(C)C)(C(C)C)C(C)C)C[C@@H]1C(=O)O | > | 2 |
| CO[C@@H](Cc1ccccc1)[C@@H](C)/C=C(C)/C=C/[C@H](NC(C)=O)[C@H](C)C(=O)NCC(=O)O | = | 1.11 |
| C=C1C(=O)N[C@H](C)C(=O)N[C@@H](CC(C)C)C(=O)N[C@@H](C(=O)O)[C@H](C)C(=O)N[C@@H](C)C(=O)N[C@@H](/C=C/C(C)=C/[C@H](C)[C@H](Cc2ccccc2)OC)[C@H](C)C(=O)N[C@@H](C(=O)O)CCC(=O)N1C (A[Adda][d(γGlu)][NMeDha][dA]L[dAsp(3S-Me)]-OH; lactam N-7) | = | 1 |
| CO[C@@H](Cc1ccccc1)[C@@H](C)/C=C(C)/C=C/[C@H](NC(C)=O)[C@H](C)C(=O)N1CCC[C@@H]1C(=O)O | = | 2 |
| CO[C@@H](Cc1ccccc1)[C@@H](C)/C=C(C)/C=C/[C@H](NC(C)=O)[C@H](C)C(=O)N1[C@@H](C(=O)O)CC[C@H]1C(=O)O | > | 5 |
| CO[C@@H](Cc1ccccc1)[C@@H](C)/C=C(C)/C=C/[C@H](NC(C)=O)[C@H](C)C(=O)N[C@H](C)C(=O)O | = | 6 |
